Parameter IC50, tested on Lactase/phlorizin hydrolase (Homo sapiens), listed per item.
quantity: IC50 (µM)

given smiles	result modifier	recorded number
OC[C@@H]1[C@@H](O)[C@H](O)[C@@H](O)CN1CCCCCOCc1ccc(-c2ccccc2)c(F)c1	=	20
C[C@H](OCCCCCN1C[C@H](O)[C@@H](O)[C@H](O)[C@H]1CO)c1ccc(-c2ccccc2)cc1	=	9
OC[C@@H]1[C@@H](O)[C@H](O)[C@@H](O)CN1CCCCCOCc1ccc(-c2ccccc2)cc1C(F)(F)F	=	50
OC[C@H]1[C@@H](O)[C@H](O)[C@@H](O)CN1CC(F)(F)CCCOCc1ccc(-c2ccccc2)cc1	>	100

----------
Biological target: Ceramide glucosyltransferase (Homo sapiens)
Sequence (Q16739 whole entry): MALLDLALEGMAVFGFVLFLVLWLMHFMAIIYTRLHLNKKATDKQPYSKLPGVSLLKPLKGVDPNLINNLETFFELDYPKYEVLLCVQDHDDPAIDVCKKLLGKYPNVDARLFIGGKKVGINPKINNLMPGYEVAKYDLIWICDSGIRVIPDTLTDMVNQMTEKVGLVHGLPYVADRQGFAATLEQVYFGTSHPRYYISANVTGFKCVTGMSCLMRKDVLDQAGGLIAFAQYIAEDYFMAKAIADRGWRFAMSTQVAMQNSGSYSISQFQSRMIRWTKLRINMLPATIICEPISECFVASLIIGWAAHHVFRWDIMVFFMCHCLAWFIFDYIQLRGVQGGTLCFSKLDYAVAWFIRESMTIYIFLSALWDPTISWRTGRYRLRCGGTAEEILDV
Listed compounds paired with reported IC50
quantity: IC50 (nM)

compound	units symbol	recorded number
OC[C@H]1[C@@H](O)[C@H](O)[C@@H](O)CN1CCCCCCOCC12CC3CC(CC(C3)C1)C2	nM	250
O=C(CCCCCN1C[C@H](O)[C@@H](O)[C@H](O)[C@H]1CO)NC12CC3CC(CC(C3)C1)C2	nM	1000
OC[C@@H]1[C@@H](O)[C@H](O)[C@@H](O)CN1CCCCCOCc1ccccc1	nM	750
OC[C@@H]1[C@@H](O)[C@H](O)[C@@H](O)CN1CCCCCOCc1ccc(-c2ccc3c(c2)OCCO3)cc1	nM	40
OC[C@H]1[C@@H](O)[C@H](O)[C@@H](O)CN1CCCCCOCc1cccc(-c2ccccc2)c1	nM	70
CC(C)CCC[C@@H](C)[C@H]1CC[C@H]2[C@@H]3CC=C4C[C@@H](OCCCCCN5C[C@H](O)[C@@H](O)[C@H](O)[C@H]5CO)CC[C@]4(C)[C@H]3CC[C@]12C	nM	1000
OC[C@@H]1[C@@H](O)[C@H](O)[C@@H](O)CN1CCCCCOCC1C2CC3CC(C2)CC1C3 (stereo not given in full)	nM	300
OC[C@H]1[C@@H](O)[C@H](O)[C@@H](O)CN1CCCCCOCc1ccc2ccccc2c1	nM	3
OC[C@H]1[C@@H](O)[C@H](O)[C@@H](O)CN1CCCCCOCc1ccccc1	nM	200
OC[C@@H]1[C@@H](O)[C@H](O)[C@@H](O)CN1CCCCCOCc1ccc2ccc3cccc4ccc1c2c34	nM	3
OC[C@H]1[C@@H](O)[C@H](O)[C@@H](O)CN1CCCCCOCC1CCCCC1	nM	70
O=C(CCCCCN1C[C@H](O)[C@@H](O)[C@H](O)[C@@H]1CO)NC12CC3CC(CC(C3)C1)C2	nM	400
OC[C@@H]1[C@@H](O)[C@H](O)[C@@H](O)CN1CCCCCOCc1ccc(-c2cccnc2)cc1	nM	2000
OC[C@@H]1[C@@H](O)[C@H](O)[C@@H](O)CN1CC(F)(F)CCCOCc1ccc(-c2ccccc2)cc1	nM	1250
CC(C)=CCC/C(C)=C/CC/C(C)=C/CCOCCCCCN1C[C@H](O)[C@@H](O)[C@H](O)[C@@H]1CO	nM	2500
OC[C@@H]1[C@@H](O)[C@H](O)[C@@H](O)CN1CCCCCCOCC12CC3CC(CC(C3)C1)C2	nM	300
OC[C@H]1[C@@H](O)[C@H](O)[C@@H](O)CN1CCCCCOCc1ccc2ccc3cccc4ccc1c2c34	nM	3
OC[C@@H]1[C@@H](O)[C@H](O)[C@@H](O)CN1CCCC(F)(F)COCc1ccc(-c2ccccc2)cc1	nM	60
OC[C@@H]1[C@@H](O)[C@H](O)[C@@H](O)CN1CCCCCOCc1ccc(-c2cncnc2)cc1	nM	2000
OC[C@@H]1[C@@H](O)[C@H](O)[C@@H](O)CN1CCCCCOCC1CCCCC1	nM	500
OC[C@H]1[C@@H](O)[C@H](O)[C@@H](O)CN1CCCCCOCC1C2CC3CC(C2)CC1C3 (stereo not given in full)	nM	80
OC[C@H]1[C@@H](O)[C@H](O)[C@@H](O)CN1CC(F)(F)CCCOCc1ccc(-c2ccccc2)cc1	nM	20
OC[C@@H]1[C@@H](O)[C@H](O)[C@@H](O)CN1CCCCCOCc1ccc2ccccc2c1	nM	3
OC[C@@H]1[C@@H](O)[C@H](O)[C@@H](O)CN1CCCCCOCc1ccc(-c2ccccc2F)cc1	nM	75
CC(C)CCC[C@@H](C)[C@H]1CC[C@H]2[C@@H]3CC=C4C[C@@H](OCCCCCN5C[C@H](O)[C@@H](O)[C@H](O)[C@@H]5CO)CC[C@]4(C)[C@H]3CC[C@]12C	nM	1000

----------
molecular target: Lactase/phlorizin hydrolase (Homo sapiens, UniProt P09848)
Sequence (P09848 869-1927 limits assumed): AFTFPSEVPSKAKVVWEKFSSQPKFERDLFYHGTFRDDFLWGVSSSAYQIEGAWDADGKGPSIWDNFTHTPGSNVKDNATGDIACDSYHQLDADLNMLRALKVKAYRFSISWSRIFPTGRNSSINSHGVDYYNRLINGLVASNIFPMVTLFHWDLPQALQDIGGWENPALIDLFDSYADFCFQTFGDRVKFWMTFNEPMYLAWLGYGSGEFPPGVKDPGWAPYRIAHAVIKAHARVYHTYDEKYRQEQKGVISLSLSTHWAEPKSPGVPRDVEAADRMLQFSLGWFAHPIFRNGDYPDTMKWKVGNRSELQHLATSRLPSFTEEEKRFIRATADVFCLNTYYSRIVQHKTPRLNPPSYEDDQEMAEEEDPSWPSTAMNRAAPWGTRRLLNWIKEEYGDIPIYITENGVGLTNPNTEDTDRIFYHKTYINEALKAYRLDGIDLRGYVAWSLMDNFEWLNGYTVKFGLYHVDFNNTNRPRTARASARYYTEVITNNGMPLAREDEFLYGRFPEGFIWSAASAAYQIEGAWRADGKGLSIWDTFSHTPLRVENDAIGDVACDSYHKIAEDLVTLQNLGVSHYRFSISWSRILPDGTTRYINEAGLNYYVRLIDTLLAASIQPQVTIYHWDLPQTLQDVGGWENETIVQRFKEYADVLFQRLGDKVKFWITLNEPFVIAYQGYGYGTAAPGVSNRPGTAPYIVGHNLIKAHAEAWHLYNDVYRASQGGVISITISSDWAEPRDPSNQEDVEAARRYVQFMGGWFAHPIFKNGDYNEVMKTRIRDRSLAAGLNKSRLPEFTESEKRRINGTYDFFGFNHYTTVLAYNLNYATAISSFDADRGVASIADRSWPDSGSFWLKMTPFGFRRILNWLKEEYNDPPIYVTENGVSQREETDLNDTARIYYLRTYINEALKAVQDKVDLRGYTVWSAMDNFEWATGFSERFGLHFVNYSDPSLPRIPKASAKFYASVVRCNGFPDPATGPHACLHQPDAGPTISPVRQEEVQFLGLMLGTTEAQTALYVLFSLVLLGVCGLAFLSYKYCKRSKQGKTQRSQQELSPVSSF
So basically: is IC50 under 40 µM? Then Condition met. Not under? Then Condition not met.

compound	class assignment
OC[C@H]1[C@@H](O)[C@H](O)[C@@H](O)CN1CCCCCOCc1ccc(-c2ccccc2)cc1F	Condition not met
OC[C@H]1[C@@H](O)[C@H](O)[C@@H](O)CN1CCCCCOCc1ccc(-c2ccccc2)c(C(F)(F)F)c1	Condition not met
C[C@@H](OCCCCCN1C[C@H](O)[C@@H](O)[C@H](O)[C@@H]1CO)c1ccc(-c2ccccc2)cc1	Condition not met
OC[C@@H]1[C@@H](O)[C@H](O)[C@@H](O)CN1CCCCCOCc1ccc(-c2ccccc2)c(C(F)(F)F)c1	Condition not met
OC[C@H]1[C@@H](O)[C@H](O)[C@@H](O)CN1CCCCCOCc1ccc(-c2ccccc2)c(F)c1 [NIZUBAGLUSTAT]	Condition not met
OC[C@@H]1[C@@H](O)[C@H](O)[C@@H](O)CN1CCCCCOCc1cccc(-c2ccccc2)c1	Condition met

----------
Target: Beta-glucosidase (Homo sapiens)
Sequence (Q9HCG7 whole entry): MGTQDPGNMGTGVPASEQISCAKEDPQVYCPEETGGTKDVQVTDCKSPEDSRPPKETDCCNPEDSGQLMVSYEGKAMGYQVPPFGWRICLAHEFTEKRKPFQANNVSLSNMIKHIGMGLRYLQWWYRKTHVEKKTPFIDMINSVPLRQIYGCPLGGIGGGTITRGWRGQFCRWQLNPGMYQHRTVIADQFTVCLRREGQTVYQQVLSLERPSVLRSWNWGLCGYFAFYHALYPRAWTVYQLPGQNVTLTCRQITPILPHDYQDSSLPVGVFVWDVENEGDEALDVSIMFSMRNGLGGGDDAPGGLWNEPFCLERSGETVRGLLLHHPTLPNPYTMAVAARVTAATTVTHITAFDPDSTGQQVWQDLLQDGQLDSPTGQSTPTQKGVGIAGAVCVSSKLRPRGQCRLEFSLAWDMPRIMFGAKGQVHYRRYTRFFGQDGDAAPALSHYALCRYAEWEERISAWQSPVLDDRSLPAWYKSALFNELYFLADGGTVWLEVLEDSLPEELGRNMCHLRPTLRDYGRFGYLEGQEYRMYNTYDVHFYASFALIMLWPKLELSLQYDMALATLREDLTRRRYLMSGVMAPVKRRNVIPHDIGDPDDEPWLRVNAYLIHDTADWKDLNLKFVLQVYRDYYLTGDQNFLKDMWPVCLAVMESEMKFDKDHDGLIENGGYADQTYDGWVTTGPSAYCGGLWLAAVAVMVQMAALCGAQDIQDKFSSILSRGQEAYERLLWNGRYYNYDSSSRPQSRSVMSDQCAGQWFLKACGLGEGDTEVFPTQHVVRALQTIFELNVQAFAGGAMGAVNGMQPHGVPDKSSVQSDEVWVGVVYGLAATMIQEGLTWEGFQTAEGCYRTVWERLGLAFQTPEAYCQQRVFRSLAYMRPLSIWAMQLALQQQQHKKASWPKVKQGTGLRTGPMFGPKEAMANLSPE
pIC50: −log10 of the molar value.
quantity: pIC50

compound	recorded number
OC[C@@H]1[C@@H](O)[C@H](O)[C@@H](O)CN1CCCCCOCC1CCCCC1	8.40
OC[C@@H]1[C@@H](O)[C@H](O)[C@@H](O)CN1CCCCCOCC1C2CC3CC(C2)CC1C3 (some centres undefined)	9.00
OC[C@@H]1[C@@H](O)[C@H](O)[C@@H](O)CN1CC(F)(F)CCCOCc1ccc(-c2ccccc2)cc1	8.00
OC[C@H]1[C@@H](O)[C@H](O)[C@@H](O)CN1CCCCCCC12CC3CC(CC(C3)C1)C2	7.70
